- EXPERIMENT NOTES: Toxicity in Swiss mouse assessed as change in plasma urea level at 10 mg/kg, ig measured after 30 mins (reference value: 90.31 +/- 0.74 mg/dl)
- Assay type: organism-based
- RUN PARAMETERS: in vivo, po, 0.5 h
1 means recorded Activity is 80 mg/dL or above; -1 means it is below 80 mg/dL.

• COc1ccc([Se]P(=O)(OC)OC)cc1 = -1
• CCCCOP(=O)(OCCCC)[Se]c1ccccc1 = 1

Now take the following compound into account.
hey, is Activity for this one >= 80 mg/dL? `O=P(OCc1ccccc1)(OCc1ccccc1)[Se]c1ccccc1`
1

====

- EXPERIMENT NOTES: Toxicity in Swiss mouse assessed as change in plasma AST level at 10 mg/kg, ig measured after 30 mins (reference value: 148 +/- 8.08 […])
- Type: organism-based
- RUN PARAMETERS: in vivo, po, 0.5 h
The molecules listed here are annotated with their Activity.
Enter your answer as a number in IU/L; do not include the unit.

* CCCCOP(=O)(OCCCC)[Se]c1ccccc1 | 159.3
* COc1ccc([Se]P(=O)(OC)OC)cc1 | 151
* O=P(OCc1ccccc1)(OCc1ccccc1)[Se]c1ccccc1 | 155.3
* COP(=O)(OC)[Se]c1ccccc1 | 151.2

Continue with the next molecule.
# input molecule: `COP(=O)(OC)[Se]c1ccc(C)cc1` ; wanted: its Activity
147.4

====

- EXPERIMENT NOTES: Stability of compound exposed to blue LED light using DCM as solvent assessed as parent compound remaining measured after 2 hrs by 31P-[1H] NMR spectroscopy
- Assay type: physicochemical
- RUN PARAMETERS: DCM solution exposed to blue LED light, read-out: Stabilty
MEASUREMENT LABEL: remaining at 2 h (%)
Just the number in %, nothing appended.

# lookup: remaining at 2 h of `CCOP(=O)(OCC)[Te]c1ccccc1`
20

====

- Tested on: Brain
- EXPERIMENT NOTES: Antioxidant activity in Swiss mouse brain cerebral tissue assessed as inhibition of SNP-induced lipid peroxidation by measuring TBARS level at 10 uM incubated for 1 hr relative to control
- Format: functional, tissue-based
- Parameters: scale not given: the % may be the effect or the level left
MEASUREMENT LABEL: Activity (%)
# output: bare number, implied unit %

* COc1ccc([Se]P(=O)(OC)OC)cc1 | 87.6

Look up Activity with Brain for this compound: Cc1c(C)c2c(c(C)c1O)CCC(C)(C(=O)O)O2 (stereo unspecified)
29.8

API: value(readout= Activity, system= Brain, query= `O=P(OCc1ccccc1)(OCc1ccccc1)[Se]c1ccccc1` )
59.5

Field: Activity (Brain). Entry: `COP(=O)(OC)[Se]c1ccc(C)cc1`
73

# query: Activity | item `CCCCOP(=O)(OCCCC)[Se]c1ccccc1` | system: Brain
79.3

Recorded Activity for `COP(=O)(OC)[Se]c1ccccc1` with Brain, please?
84.7

====

- EXPERIMENT NOTES: Ex vivo antioxidant activity in Swiss mouse assessed as inhibition of canola oil-induced superoxide dismutase activity in brain by measuring SOD activity at 10 mg/kg, ig measured after 30 mins by spectrophotometric method (reference value: 25.44 +/- 4.12 U/min)
- Type: functional
- RUN PARAMETERS: 0.5 h
Below: a set of entries, each annotated with reported Activity.
# value in U/min; strip the unit string

// below: answered compounds
* COc1ccc([Se]P(=O)(OC)OC)cc1 | 13.47
* CCCCOP(=O)(OCCCC)[Se]c1ccccc1 | 23.85
* O=P(OCc1ccccc1)(OCc1ccccc1)[Se]c1ccccc1 | 17.54

Value lookup for Activity; key = `COP(=O)(OC)[Se]c1ccc(C)cc1`
7.37

For the compound `COP(=O)(OC)[Se]c1ccccc1` , what Activity is on record?
25.94

====

- EXPERIMENT NOTES: Antioxidant activity assessed as ABTS radical scavenging activity at 10 uM relative to control
- Format: functional
MEASUREMENT LABEL: Activity

A selection of reference data follows.
- Cc1c(C)c2c(c(C)c1O)CCC(C)(C(=O)O)O2 (stereo unspecified): 94.3%
- COc1ccc([Se]P(=O)(OC)OC)cc1: 6.76%
- O=P(OCc1ccccc1)(OCc1ccccc1)[Se]c1ccccc1: 3.85%
- COP(=O)(OC)[Se]c1ccccc1: 5.02%
- COP(=O)(OC)[Se]c1ccc(C)cc1: 11.5%

Let's switch to this compound now.
Any idea what Activity was measured for `CCCCOP(=O)(OCCCC)[Se]c1ccccc1` ?
1.92%

====

- EXPERIMENT NOTES: Toxicity in Swiss mouse assessed as change in plasma creatinine level at 10 mg/kg, ig measured after 30 mins (reference value: 1.77 +/- 0.05 mg/dl)
- Assay type: organism-based
- RUN PARAMETERS: in vivo, po, 0.5 h
Parameter Activity: see the listing below.
// note: answer is a bare numeric in mg/dL

Examples with answers:
* CCCCOP(=O)(OCCCC)[Se]c1ccccc1 | 1.75
* COc1ccc([Se]P(=O)(OC)OC)cc1 | 2.36
* O=P(OCc1ccccc1)(OCc1ccccc1)[Se]c1ccccc1 | 1.52
* COP(=O)(OC)[Se]c1ccc(C)cc1 | 1.96

# next compound below
Please report the recorded Activity for `COP(=O)(OC)[Se]c1ccccc1` .
1.78

====

Known Activity of a selection of compounds
- EXPERIMENT NOTES: Toxicity in Swiss mouse assessed as change in plasma ALT level at 10 mg/kg, ig measured after 30 mins (reference value: 110.90 +/- 12.4 IU/L)
- Assay type: organism-based
- RUN PARAMETERS: in vivo, po, 0.5 h
Output spec: scalar in IU/L, unitless text.

Reference set, count: 4
* COc1ccc([Se]P(=O)(OC)OC)cc1 | 119.5
* CCCCOP(=O)(OCCCC)[Se]c1ccccc1 | 140
* COP(=O)(OC)[Se]c1ccc(C)cc1 | 119
* O=P(OCc1ccccc1)(OCc1ccccc1)[Se]c1ccccc1 | 138.1

Next, consider the following compound.
Data request, read-out Activity, for `COP(=O)(OC)[Se]c1ccccc1`
117.4

====

Activity: recorded values
- EXPERIMENT NOTES: Antioxidant activity assessed as DPPH radical scavenging activity at 100 uM incubated for 30 mins under dark condition relative to control
- Assay type: functional
Quick reminder: number only, in %, skip the unit.

• COc1ccc([Se]P(=O)(OC)OC)cc1 = 11.9
• CCCCOP(=O)(OCCCC)[Se]c1ccccc1 = 12.2
• COP(=O)(OC)[Se]c1ccc(C)cc1 = 9.87
• O=P(OCc1ccccc1)(OCc1ccccc1)[Se]c1ccccc1 = 3.72

I have this compound here, `COP(=O)(OC)[Se]c1ccccc1` , and I need its recorded Activity.
4.68
